# TESTED ON: PI3K-delta (Homo sapiens, UniProt O00329)
# Construct: Millipore 14-604
# Sequence (O00329 whole entry): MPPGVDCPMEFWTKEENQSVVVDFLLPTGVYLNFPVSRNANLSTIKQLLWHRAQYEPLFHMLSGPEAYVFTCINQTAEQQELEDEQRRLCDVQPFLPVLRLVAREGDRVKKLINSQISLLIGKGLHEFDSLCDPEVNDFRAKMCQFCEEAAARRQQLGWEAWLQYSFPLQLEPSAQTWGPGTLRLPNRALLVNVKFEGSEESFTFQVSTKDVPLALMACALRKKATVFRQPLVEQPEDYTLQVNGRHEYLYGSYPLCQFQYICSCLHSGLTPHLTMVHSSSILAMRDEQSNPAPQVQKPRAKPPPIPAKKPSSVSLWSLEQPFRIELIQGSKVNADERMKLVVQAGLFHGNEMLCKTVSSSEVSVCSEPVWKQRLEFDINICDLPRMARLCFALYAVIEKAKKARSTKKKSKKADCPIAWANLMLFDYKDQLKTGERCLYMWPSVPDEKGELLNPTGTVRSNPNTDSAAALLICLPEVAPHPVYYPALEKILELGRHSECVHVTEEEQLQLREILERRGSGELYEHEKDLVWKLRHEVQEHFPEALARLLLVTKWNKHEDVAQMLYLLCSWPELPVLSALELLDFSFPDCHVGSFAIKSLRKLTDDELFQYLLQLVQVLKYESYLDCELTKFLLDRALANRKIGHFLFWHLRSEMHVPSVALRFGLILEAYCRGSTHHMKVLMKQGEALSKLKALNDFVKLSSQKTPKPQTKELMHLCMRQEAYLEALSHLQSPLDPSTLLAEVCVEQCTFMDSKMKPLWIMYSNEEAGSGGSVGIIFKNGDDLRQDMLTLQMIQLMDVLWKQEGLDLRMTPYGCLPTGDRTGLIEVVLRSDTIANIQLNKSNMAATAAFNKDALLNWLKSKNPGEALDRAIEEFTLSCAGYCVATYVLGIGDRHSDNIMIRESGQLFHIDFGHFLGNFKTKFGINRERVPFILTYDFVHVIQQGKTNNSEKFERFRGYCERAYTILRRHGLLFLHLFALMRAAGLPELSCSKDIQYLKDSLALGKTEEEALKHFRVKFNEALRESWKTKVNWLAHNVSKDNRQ
# Sequence (P27986 whole entry partner): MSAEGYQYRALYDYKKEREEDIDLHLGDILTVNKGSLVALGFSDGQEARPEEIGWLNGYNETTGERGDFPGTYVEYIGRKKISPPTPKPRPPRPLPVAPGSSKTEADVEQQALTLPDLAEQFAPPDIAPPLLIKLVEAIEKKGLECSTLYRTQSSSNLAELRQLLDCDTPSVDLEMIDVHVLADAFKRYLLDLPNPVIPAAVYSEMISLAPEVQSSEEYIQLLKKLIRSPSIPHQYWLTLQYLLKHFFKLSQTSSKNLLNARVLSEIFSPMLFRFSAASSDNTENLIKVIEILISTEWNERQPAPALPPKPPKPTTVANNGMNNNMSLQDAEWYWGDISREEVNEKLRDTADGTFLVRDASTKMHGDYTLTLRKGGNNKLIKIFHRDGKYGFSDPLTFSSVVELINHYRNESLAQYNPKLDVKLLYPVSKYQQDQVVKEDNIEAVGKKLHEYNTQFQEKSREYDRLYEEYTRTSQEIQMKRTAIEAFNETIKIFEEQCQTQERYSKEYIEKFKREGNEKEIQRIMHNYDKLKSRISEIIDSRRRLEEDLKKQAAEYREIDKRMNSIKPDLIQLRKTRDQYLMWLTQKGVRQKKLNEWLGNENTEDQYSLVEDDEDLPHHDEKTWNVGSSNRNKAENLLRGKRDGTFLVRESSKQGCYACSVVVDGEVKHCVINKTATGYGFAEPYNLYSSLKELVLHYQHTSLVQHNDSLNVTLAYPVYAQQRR
# MEASUREMENT NOTES: HTRF PI3K biochemical assay, delta isoform
# MEASUREMENT CONTEXT: form screened (neutral or TFA salt) given, read-out: PI3Kdelta IC50
QUANTITY KIND: IC50

Take a look at these entries with their results.
CCn1c(-c2cnc(OC)c(F)c2)nc2c(N[C@H]3CCN(C(=O)c4cncn4C)C3)ncnc21 [Compound 3A-2]    < 1 nM
CCn1c(-n2cnc3ccccc32)nc2c(N[C@H]3CCN(C(=O)C4CC4)C3)ncnc21 [Compound 8-2]    < 1 nM

Then this compound:
Task: I would be grateful if you could share the reported IC50 for CCn1c(-c2cnc(C)nc2)nc2c(N[C@H]3CCN(C(=O)C4CC4CF)C3)ncnc21 (mixture of isomers) [Compound 2-37] .
Result: < 1 nM

====

# TESTED ON: PI3K-delta (Homo sapiens)
# Construct: Millipore 14-604
# MEASUREMENT NOTES: HTRF PI3K biochemical assay, delta isoform
# MEASUREMENT CONTEXT: form screened (neutral or TFA salt) given, read-out: PI3Kdelta IC50
pIC50: −log10 of the molar value.
QUANTITY KIND: pIC50

CCC(=O)N1CC[C@H](N(C)c2ncnc3c2nc(-c2cnc(C(C)(C)C)s2)n3CC)C1    8.44
CCC(=O)N1CC[C@H](Nc2ncnc3c2nc(C)n3CC)C1    6.30
CCn1c(-c2cnc(C)nc2)nc2c(N[C@H]3CCN(C(=O)C4CCCC4)C3)ncnc21    8.10
CCn1c(-c2cnc(C)nc2)nc2c(N[C@@H]3CN(C(=O)C4CC4)C[C@H]3O)ncnc21 (racemic)    8.22
CCC(=O)N1CC[C@H](Nc2ncnc3c2nc(-c2cc(O)cc(F)c2)n3C)C1    8.89

(P) CCn1c(-c2cnc(C)nc2)nc2c(N[C@H]3C[C@H](CO)N(C(=O)C4CC4)C3)ncnc21
(Q) CCCN1CC(Nc2ncnc3c2nc(-c2cnc(C)nc2)n3CC)CCC1=O (racemic)
Task: Identify the item whose pIC50 is the smaller number: P or Q Could you answer with the label of the item you picked?
Result: Q
(Q: 7.68, P: 8.31)

====

# TESTED ON: PI3K-delta (Homo sapiens)
# Construct: Millipore 14-604
# MEASUREMENT NOTES: HTRF PI3K biochemical assay, delta isoform
# MEASUREMENT CONTEXT: form screened (neutral or TFA salt) given, read-out: PI3Kdelta IC50
pIC50: −log10 of the molar value.
QUANTITY KIND: pIC50

Take a look at these entries with their results.
CCn1c(-c2cnc(C)nc2)nc2c(N[C@H]3CCN(C(=O)[C@@H]4C[C@@H]4C)C3)ncnc21    8.89
CCn1c(C(=O)NC2CCCCC2)nc2c(N[C@H]3CCN(C(=O)C4CC4)C3)ncnc21    7.77
CCn1c(-c2cnc(C)nc2)nc2c(N[C@H]3CCN(C(=O)C4C(C)(C)C4(C)C)C3)ncnc21    8.80

(A) CCn1c(CC(F)(F)F)nc2c(N[C@H]3CCN(C(=O)C4CC4)C3)ncnc21
(B) CCn1c(-c2cnc(C)nc2)nc2c(N[C@H]3CCN(C(=O)[C@@H]4CCCN4C)C3)ncnc21
Task: Of the two listed items, A and B , which carries the larger pIC50 figure? Could you answer with the label of the item you picked?
Result: B

====

# TESTED ON: PI3K-delta (Homo sapiens)
# Construct: Millipore 14-604
# MEASUREMENT NOTES: HTRF PI3K biochemical assay, delta isoform
# MEASUREMENT CONTEXT: form screened (neutral or TFA salt) given, read-out: PI3Kdelta IC50
pIC50: −log10 of the molar value.
QUANTITY KIND: pIC50

CCn1c(C(F)F)nc2c(N[C@H]3CCN(C(=O)N4CCC4)C3)ncnc21 [Compound 7-27]    8.28
CCn1c(-c2cnc(C)nc2)nc2c(N[C@H]3CCN(C(=O)CC(C)(C)O)C3)ncnc21 [Compound 2-30]    7.82

(I) CCn1c(C(F)F)nc2c(N[C@H]3CCN(C(=O)C4CCC4)C3)ncnc21 [Compound 7-15]
(II) CCn1ncc(-c2nc3c(NC4CN(C(=O)OC(C)(C)C)C4)ncnc3n2C)c1C [Compound 1-10]
Task: Of the two listed items, I and II , which carries the larger pIC50 figure? Could you answer with the label of the item you picked?
Result: I
(I: 8.12, II: 7.82)

====

# TESTED ON: PI3K-delta (Homo sapiens, UniProt O00329)
# Construct: Millipore 14-604
# MEASUREMENT NOTES: HTRF PI3K biochemical assay, delta isoform
# MEASUREMENT CONTEXT: form screened (neutral or TFA salt) given, read-out: PI3Kdelta IC50
QUANTITY KIND: IC50 (nM)

CCn1c(C(=O)NCC(F)(F)F)nc2c(N[C@H]3CCN(C(=O)N4CC(OC)C4)C3)ncnc21    5.1
CCn1c(-c2cnc(C)nc2)nc2c(N[C@H]3CCN(C(=O)NCC(F)(F)F)C3)ncnc21    9.7
C=C(C)CN1CC(Nc2ncnc3c2nc(-c2cnn(CC)c2C)n3C)CC1=O (racemic)    10
CCn1c(-c2cnc(C)nc2)nc2c(N[C@H]3CCN(C(=O)C4(C#N)CC4)C3)ncnc21    11

(a) CCn1c(-c2cnc(C)nc2)nc2c(N[C@H]3C[C@H](C(=O)OC)N(c4ccccn4)C3)ncnc21
(b) CCn1c(Oc2ccccc2)nc2c(N[C@H]3CCN(C(=O)C4CC4)C3)ncnc21
Task: Identify the item whose IC50 is the smaller number: a or b Could you answer with the label of the item you picked?
Result: a
(a: 8.2 nM, b: 23 nM)
